- ASSAY_NOTES: Extraction ratio in rat liver microsomes at 1 uM measured after 60 mins by LC-MS/MS analysis
- Type: ADME, Microsome
- CONDITIONS: read-out: ERH
REPORTED_PROPERTY: hepatic extraction ratio at 1 h, 1 µM
Response field accepts a number only; no unit should be typed.

smiles_notation=O=C1Cc2cc(-c3c(-c4ccc(F)cc4)nn4c(N5CCC(F)CC5)nccc34)ccc2N1 reported_property="hepatic extraction ratio at 1 h, 1 µM" readout_value=0.6

Here is another molecule to look at.
Query: Endpoint output: hepatic extraction ratio at 1 h, 1 µM of CC(=O)N1CCN(c2nccc3c(-c4ccc5c(c4)CC(=O)N5)c(-c4ccc(F)cc4)nn23)CC1 . Value?
Reply: 0.5

---

- SYSTEM: GRIA1/CACNG8 (Homo sapiens)
- ASSAY_NOTES: Negative allosteric modulation of recombinant human GluA1 flop isoform/TARPgamma8 expressed in HEK293 cells assessed as inhibition of glutamate-induced calcium flux at 100 uM by calcium 5/6 dye based FLIPR assay
- CONDITIONS: read-out: pIC50 (converted)
As shown below, each of these compounds has a reported IC50 value.
Express your answer in nM, writing the number without its unit.

Use the examples below as a reference point.
smiles_notation=O=C1Cc2cc(-c3c(-c4ccc(F)cc4)nc4c(N5CCC(O)CC5)nccn34)ccc2N1 reported_property=IC50 readout_value=0.398
smiles_notation=CC(=O)N1CCN(c2nccn3c(-c4ccc5c(c4)CC(=O)N5)c(-c4ccc(F)cc4)nc23)CC1 reported_property=IC50 readout_value=0.398
smiles_notation=Nc1ccc(-c2c(-c3ccc(F)cc3)nc3c(N4CCOCC4)nccn23)cc1 reported_property=IC50 readout_value=63.1
smiles_notation=CC(=O)N1CCN(c2nccc3c(-c4ccc5c(c4)CC(=O)N5)c(-c4ccc(F)cc4)nn23)CC1 reported_property=IC50 readout_value=0.251

Query: Endpoint output: IC50 of Oc1ccc(-c2c(-c3ccc(F)cc3)nc3c(N4CCOCC4)nccn23)cc1 . Value?
Reply: 12.6

---

- SYSTEM: GRIA1/CACNG8 (Homo sapiens)
- ASSAY_NOTES: Negative allosteric modulation of recombinant human GluA1 flop isoform/TARPgamma8 expressed in HEK293 cells assessed as inhibition of glutamate-induced calcium flux at 100 uM by calcium 5/6 dye based FLIPR assay
- CONDITIONS: read-out: pIC50 (converted)
Simple rule here: IC50 less than 5 nM is Satisfied, otherwise Not satisfied.

smiles_notation=CC(=O)Nc1ccc(-c2c(-c3ccc(F)cc3)nc3c(N4CCOCC4)nccn23)cc1 assigned_label="Not satisfied"
smiles_notation=Oc1ccc(-c2c(-c3ccc(Cl)cc3)nc3c(N4CCOCC4)nccn23)cc1 assigned_label="Not satisfied"
smiles_notation=O=C1Cc2cc(-c3c(-c4ccc(F)cc4)nn4c(N5CCOCC5)nccc34)ccc2N1 assigned_label=Satisfied
smiles_notation=O=C1CN(c2nccn3c(-c4ccc5c(c4)CC(=O)N5)c(-c4ccc(F)cc4)nc23)CCN1 assigned_label=Satisfied
smiles_notation=Fc1ccc(-c2nc3c(N4CCOCC4)nccn3c2-c2ccc3[nH]ncc3c2)cc1 assigned_label=Satisfied

Now examine the next entry.
Query: Here's an entry: COc1ccc(-c2c(-c3ccc(F)cc3)nc3c(N4CCOCC4)nccn23)cc1 . Is its IC50 below 5 nM?
Reply: Not satisfied

---

- SYSTEM: GRIA1/CACNG8 (Homo sapiens, UniProt P42261+Q8WXS5)
- Sequence (P42261 whole entry, canonical isoform): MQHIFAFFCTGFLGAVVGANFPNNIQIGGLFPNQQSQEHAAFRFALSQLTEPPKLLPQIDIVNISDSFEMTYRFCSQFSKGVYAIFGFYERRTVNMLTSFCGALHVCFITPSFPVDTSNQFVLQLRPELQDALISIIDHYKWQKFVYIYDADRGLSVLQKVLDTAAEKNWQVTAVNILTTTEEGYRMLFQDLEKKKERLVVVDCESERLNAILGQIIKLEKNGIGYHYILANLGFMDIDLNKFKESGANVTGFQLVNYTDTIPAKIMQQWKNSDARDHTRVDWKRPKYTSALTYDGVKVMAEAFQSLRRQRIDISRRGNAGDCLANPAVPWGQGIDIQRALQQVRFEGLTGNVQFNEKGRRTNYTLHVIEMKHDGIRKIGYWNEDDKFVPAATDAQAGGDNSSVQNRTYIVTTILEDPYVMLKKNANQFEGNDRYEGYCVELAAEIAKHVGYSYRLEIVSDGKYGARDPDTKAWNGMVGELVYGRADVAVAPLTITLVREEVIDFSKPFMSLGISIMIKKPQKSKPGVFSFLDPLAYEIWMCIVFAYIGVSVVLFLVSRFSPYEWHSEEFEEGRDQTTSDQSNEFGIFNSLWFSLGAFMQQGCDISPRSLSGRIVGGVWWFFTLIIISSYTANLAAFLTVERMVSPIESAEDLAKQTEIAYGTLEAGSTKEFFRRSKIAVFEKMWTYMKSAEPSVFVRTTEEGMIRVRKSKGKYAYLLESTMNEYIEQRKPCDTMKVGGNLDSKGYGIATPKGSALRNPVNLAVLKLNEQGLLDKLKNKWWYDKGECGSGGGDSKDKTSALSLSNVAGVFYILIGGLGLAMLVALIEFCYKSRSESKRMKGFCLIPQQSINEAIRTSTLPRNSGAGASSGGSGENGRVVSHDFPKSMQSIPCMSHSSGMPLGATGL
- Sequence (Q8WXS5 whole entry, canonical isoform): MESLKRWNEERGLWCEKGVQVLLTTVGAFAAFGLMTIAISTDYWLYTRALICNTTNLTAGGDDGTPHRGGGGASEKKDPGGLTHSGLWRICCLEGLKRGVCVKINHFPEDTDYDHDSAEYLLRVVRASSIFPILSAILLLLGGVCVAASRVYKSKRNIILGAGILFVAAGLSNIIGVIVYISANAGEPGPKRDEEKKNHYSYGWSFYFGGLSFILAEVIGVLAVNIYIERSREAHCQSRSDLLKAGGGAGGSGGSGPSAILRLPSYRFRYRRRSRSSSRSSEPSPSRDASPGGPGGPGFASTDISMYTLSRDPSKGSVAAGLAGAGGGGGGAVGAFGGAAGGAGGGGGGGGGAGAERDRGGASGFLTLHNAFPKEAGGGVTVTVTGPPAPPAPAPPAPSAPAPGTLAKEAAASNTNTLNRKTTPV
- ASSAY_NOTES: Negative allosteric modulation of recombinant human GluA1 flop isoform/TARPgamma8 expressed in HEK293 cells assessed as inhibition of glutamate-induced calcium flux by calcium 5/6 dye based FLIPR assay
As shown below, each of these molecules has a reported IC50 value.
Express your answer in µM, writing the number without its unit.

smiles_notation=COCCn1cc(-c2c(-c3ccc(Cl)cc3)nc3c(N4CCOCC4)nccn23)cn1 value_unit=µM readout_value=0.126

Query: What IC50 appears in the records for this molecule with GRIA1/CACNG8 (Homo sapiens, UniProt P42261+Q8WXS5)? Oc1ccc(-n2c(-c3ccc(F)cc3)nc3ccccc32)cc1
Reply: 0.2
